Measured values drawn from the supplement of paper PMC10307832 for this set.

Test system: NCI-H1944
Assay protocol: relative viability (nuclei count vs DMSO), 5 days (fraction); higher = more cells survive
Cond: first compound 0.0002 µM
Exam item: assign yes (1) to entries whose relative viability is below 0.5 and no (0) to entries at or above 0.5. Note that a value of exactly 0.5 receives no (0).

>>> answer_label("CC(=O)O[C@@]12CO[C@@H]1C[C@H](O)[C@@]1(C)C(=O)[C@H](O)C3=C(C)[C@@H](OC(=O)[C@H](O)[C@@H](NC(=O)OC(C)(C)C)c4ccccc4)C[C@@](O)([C@@H](OC(=O)c4ccccc4)[C@H]21)C3(C)C [Docetaxel] + NC(=O)Nc1cc(-c2cccc(F)c2)sc1C(=O)N[C@H]1CCCNC1 [AZD7762] (partner 0.2 µM)")
"no (0)"

Field: below-cutoff. Rule: recorded relative viability strictly less than 0.5. Subject: CC(=O)O[C@@]12CO[C@@H]1C[C@H](O)[C@@]1(C)C(=O)[C@H](O)C3=C(C)[C@@H](OC(=O)[C@H](O)[C@@H](NC(=O)OC(C)(C)C)c4ccccc4)C[C@@](O)([C@@H](OC(=O)c4ccccc4)[C@H]21)C3(C)C [Docetaxel] + CS(=O)(=O)N1CCN(Cc2cc3nc(-c4cccc5[nH]ncc45)nc(N4CCOCC4)c3s2)CC1 [Pictilisib] (partner 1 µM)
yes (1)

Field: below-cutoff. Rule: recorded relative viability strictly less than 0.5. Subject: CC(=O)O[C@@]12CO[C@@H]1C[C@H](O)[C@@]1(C)C(=O)[C@H](O)C3=C(C)[C@@H](OC(=O)[C@H](O)[C@@H](NC(=O)OC(C)(C)C)c4ccccc4)C[C@@](O)([C@@H](OC(=O)c4ccccc4)[C@H]21)C3(C)C [Docetaxel] + CC1(C)CCC(c2ccc(Cl)cc2)=C(CN2CCN(c3ccc(C(=O)NS(=O)(=O)c4ccc(N[C@H](CCN5CCOCC5)CSc5ccccc5)c(S(=O)(=O)C(F)(F)F)c4)cc3)CC2)C1 [Navitoclax] (partner 0.5 µM)
no (0)

Field: below-cutoff. Rule: recorded relative viability strictly less than 0.5. Subject: CC(=O)O[C@@]12CO[C@@H]1C[C@H](O)[C@@]1(C)C(=O)[C@H](O)C3=C(C)[C@@H](OC(=O)[C@H](O)[C@@H](NC(=O)OC(C)(C)C)c4ccccc4)C[C@@](O)([C@@H](OC(=O)c4ccccc4)[C@H]21)C3(C)C [Docetaxel] + N=C(N)NC(=N)NCCc1ccccc1 [Phenformin] (partner 250 µM)
yes (1)

Field: below-cutoff. Rule: recorded relative viability strictly less than 0.5. Subject: CC(=O)O[C@@]12CO[C@@H]1C[C@H](O)[C@@]1(C)C(=O)[C@H](O)C3=C(C)[C@@H](OC(=O)[C@H](O)[C@@H](NC(=O)OC(C)(C)C)c4ccccc4)C[C@@](O)([C@@H](OC(=O)c4ccccc4)[C@H]21)C3(C)C [Docetaxel] + CCNC(=O)c1noc(-c2cc(C(C)C)c(O)cc2O)c1-c1ccc(CN2CCOCC2)cc1 [Luminespib] (partner 0.01 µM)
no (0)

Field: below-cutoff. Rule: recorded relative viability strictly less than 0.5. Subject: CC(=O)O[C@@]12CO[C@@H]1C[C@H](O)[C@@]1(C)C(=O)[C@H](O)C3=C(C)[C@@H](OC(=O)[C@H](O)[C@@H](NC(=O)OC(C)(C)C)c4ccccc4)C[C@@](O)([C@@H](OC(=O)c4ccccc4)[C@H]21)C3(C)C [Docetaxel] + Nc1ncn([C@H]2C[C@H](O)[C@@H](CO)O2)c(=O)n1 [Decitabine] (partner 2 µM)
yes (1)

---

Test system: HCC-827
Assay protocol: relative viability (nuclei count vs DMSO), 5 days (fraction); higher = more cells survive
Cond: first compound 2.53 µM
Exam item: assign t to entries whose relative viability is below 0.4 and f to entries at or above 0.4. Note that a value of exactly 0.4 receives f.

>>> answer_label("Cc1cnc(-c2cnc(NCCNc3ccc(C#N)cn3)nc2-c2ccc(Cl)cc2Cl)[nH]1 + C[C@@H](Oc1cc(-c2cnn(C3CCNCC3)c2)cnc1N)c1c(Cl)ccc(F)c1Cl [Crizotinib] (partner 1 µM)")
"f"
>>> answer_label("O=c1[nH]c2ccccc2n1C1CCN(CCCC(c2ccc(F)cc2)c2ccc(F)cc2)CC1 [Pimozide] + CCNC(=O)c1noc(-c2cc(C(C)C)c(O)cc2O)c1-c1ccc(CN2CCOCC2)cc1 [Luminespib] (partner 0.01 µM)")
"f"
>>> answer_label("Cc1cnc(-c2cnc(NCCNc3ccc(C#N)cn3)nc2-c2ccc(Cl)cc2Cl)[nH]1 + O=C(CCCCCCC(=O)Nc1ccccc1)NO [Vorinostat] (partner 1 µM)")
"f"
>>> answer_label("O=c1[nH]c2ccccc2n1C1CCN(CCCC(c2ccc(F)cc2)c2ccc(F)cc2)CC1 [Pimozide] + Nc1ncn([C@H]2C[C@H](O)[C@@H](CO)O2)c(=O)n1 [Decitabine] (partner 2 µM)")
"t"
>>> answer_label("Cc1cnc(-c2cnc(NCCNc3ccc(C#N)cn3)nc2-c2ccc(Cl)cc2Cl)[nH]1 + CC(=O)Nc1cccc(-n2c(=O)n(C3CC3)c(=O)c3c(Nc4ccc(I)cc4F)n(C)c(=O)c(C)c32)c1 [Trametinib] (partner 0.02 µM)")
"f"

Next, consider the following compound.
Field: below-cutoff. Rule: recorded relative viability strictly less than 0.4. Subject: Cc1cnc(-c2cnc(NCCNc3ccc(C#N)cn3)nc2-c2ccc(Cl)cc2Cl)[nH]1 + COc1cccc2cc(-c3nc([C@H]4CC[C@H](C(=O)O)CC4)n4ncnc(N)c34)[nH]c12 [OSI-027] (partner 0.5 µM)
f

---

Tested on: PC-3 [JPC-3]
Assay protocol: relative viability (nuclei count vs DMSO), 5 days (fraction); higher = more cells survive
Cond: first compound 0.4 µM
Experimental endpoint: relative viability
Give bare numbers.

Illustrative cases are given below, each with its answer.
>>> reported_measurement("Cc1sc2c(c1C)C(c1ccc(Cl)cc1)=N[C@@H](CC(=O)OC(C)(C)C)c1nnc(C)n1-2 [JQ1] + C[C@@H](Oc1cc(-c2cnn(C3CCNCC3)c2)cnc1N)c1c(Cl)ccc(F)c1Cl [Crizotinib] (partner 1 µM)")
0.96
>>> reported_measurement("Cc1sc2c(c1C)C(c1ccc(Cl)cc1)=N[C@@H](CC(=O)OC(C)(C)C)c1nnc(C)n1-2 [JQ1] + Cc1nc(Nc2ncc(C(=O)Nc3c(C)cccc3Cl)s2)cc(N2CCN(CCO)CC2)n1 [Dasatinib] (partner 0.075 µM)")
1.16
>>> reported_measurement("Cc1sc2c(c1C)C(c1ccc(Cl)cc1)=N[C@@H](CC(=O)OC(C)(C)C)c1nnc(C)n1-2 [JQ1] + CCNC(=O)c1noc(-c2cc(C(C)C)c(O)cc2O)c1-c1ccc(CN2CCOCC2)cc1 [Luminespib] (partner 0.01 µM)")
0.614

Read the next record carefully.
State its relative viability for this molecule: Cc1sc2c(c1C)C(c1ccc(Cl)cc1)=N[C@@H](CC(=O)OC(C)(C)C)c1nnc(C)n1-2 [JQ1] + N=C(N)NC(=N)NCCc1ccccc1 [Phenformin] (partner 250 µM)
0.46

---

Give measured relative viability for each item. Keep answers brief.
Test system: NCI-H2347
Assay protocol: relative viability (nuclei count vs DMSO), 5 days (fraction); higher = more cells survive
Cond: first compound 0.253 µM
Numbers only.

Illustrative cases are given below, each with its answer.
>>> reported_measurement("Cc1cnc(-c2cnc(NCCNc3ccc(C#N)cn3)nc2-c2ccc(Cl)cc2Cl)[nH]1 + CS(=O)(=O)N1CCN(Cc2cc3nc(-c4cccc5[nH]ncc45)nc(N4CCOCC4)c3s2)CC1 [Pictilisib] (partner 1 µM)")
0.416
>>> reported_measurement("O=c1[nH]c2ccccc2n1C1CCN(CCCC(c2ccc(F)cc2)c2ccc(F)cc2)CC1 [Pimozide] + Cc1nc(NC(=O)N2CCC[C@H]2C(N)=O)sc1-c1ccnc(C(C)(C)C(F)(F)F)c1 [Alpelisib] (partner 2 µM)")
0.966

# map each molecule to its relative viability
1. O=c1[nH]c2ccccc2n1C1CCN(CCCC(c2ccc(F)cc2)c2ccc(F)cc2)CC1 [Pimozide] + N=C(N)NC(=N)NCCc1ccccc1 [Phenformin] (partner 250 µM)
2. O=c1[nH]c2ccccc2n1C1CCN(CCCC(c2ccc(F)cc2)c2ccc(F)cc2)CC1 [Pimozide] + O=C(CCCCCCC(=O)Nc1ccccc1)NO [Vorinostat] (partner 1 µM)
3. O=c1[nH]c2ccccc2n1C1CCN(CCCC(c2ccc(F)cc2)c2ccc(F)cc2)CC1 [Pimozide] + C[C@@H](Oc1cc(-c2cnn(C3CCNCC3)c2)cnc1N)c1c(Cl)ccc(F)c1Cl [Crizotinib] (partner 1 µM)
4. Cc1cnc(-c2cnc(NCCNc3ccc(C#N)cn3)nc2-c2ccc(Cl)cc2Cl)[nH]1 + C[C@]1(O)C[C@@H](c2nc(-c3ccc4ccc(-c5ccccc5)nc4c3)c3c(N)nccn32)C1 [Linsitinib] (partner 1 µM)

[0.474, 0.594, 0.661, 0.72]

# map each molecule to its relative viability
1. Cc1cnc(-c2cnc(NCCNc3ccc(C#N)cn3)nc2-c2ccc(Cl)cc2Cl)[nH]1 + O=C(c1cc(Cc2n[nH]c(=O)c3ccccc23)ccc1F)N1CCN(C(=O)C2CC2)CC1 [Olaparib] (partner 8 µM)
2. Cc1cnc(-c2cnc(NCCNc3ccc(C#N)cn3)nc2-c2ccc(Cl)cc2Cl)[nH]1 + CC1(C)CCC(c2ccc(Cl)cc2)=C(CN2CCN(c3ccc(C(=O)NS(=O)(=O)c4ccc(N[C@H](CCN5CCOCC5)CSc5ccccc5)c(S(=O)(=O)C(F)(F)F)c4)cc3)CC2)C1 [Navitoclax] (partner 0.5 µM)

1. 0.495
2. 0.625

Write relative viability of Cc1cnc(-c2cnc(NCCNc3ccc(C#N)cn3)nc2-c2ccc(Cl)cc2Cl)[nH]1 + O=C(CCCCCCC(=O)Nc1ccccc1)NO [Vorinostat] (partner 1 µM) ; system used: NCI-H2347
0.568
